Protocol Text: Biocompatibility, MTT assay
Type: cell-based, human
Condition Details: human, HFB4 normal human skin cells; 1000 µg/ml
Reported Metric: viability at 1000 µg/ml (%)
Give the quantity in %, number only.

Inquiry: Which viability at 1000 µg/ml is listed for `COc1ccc(NC(=O)/C(C#N)=C/c2cn(-c3ccccc3)nc2-c2ccccc2)cc1` ?
Reply text: 99.2

---

Protocol Text: Biocompatibility, MTT assay
Assay type: cell-based, human
Condition Details: human, HFB4 normal human skin cells; 250 µg/ml
Reported Metric: viability at 250 µg/ml
Answer format reminder: number followed by unit.

Inquiry: Can you share its viability at 250 µg/ml? I mean this compound: `COc1ccc(NC(=O)/C(C#N)=C/c2cn(-c3ccccc3)nc2-c2ccccc2)cc1`
Reply text: 99.8%
